Every entry's value here was drawn from ChEMBL document CHEMBL5291721.

- SYSTEM_NAME: Type-1 angiotensin II receptor (Homo sapiens)
- Sequence (P30556 whole entry): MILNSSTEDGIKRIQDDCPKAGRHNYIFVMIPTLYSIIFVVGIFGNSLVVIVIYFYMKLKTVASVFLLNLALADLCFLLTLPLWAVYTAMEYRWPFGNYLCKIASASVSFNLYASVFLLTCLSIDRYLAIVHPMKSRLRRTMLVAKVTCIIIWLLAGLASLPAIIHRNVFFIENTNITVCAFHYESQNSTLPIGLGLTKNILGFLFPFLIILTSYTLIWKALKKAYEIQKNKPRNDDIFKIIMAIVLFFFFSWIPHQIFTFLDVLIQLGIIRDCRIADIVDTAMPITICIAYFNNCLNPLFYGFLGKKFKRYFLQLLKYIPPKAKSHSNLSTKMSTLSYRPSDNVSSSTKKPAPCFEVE
Listed here are molecules together with their documented AC50.
EXPERIMENTAL_READOUT: AC50

[[record]]
molecule = "CC(C)(C)NCC(O)COc1cccc2c1CCC(=O)N2 (stereo not given) [CARTEOLOL]"
reported_result = "> 10 µM"

[[record]]
molecule = "CC[C@@H](C(N)=O)N1CCCC1=O"
reported_result = "> 30 µM"

[[record]]
molecule = "CC1(C)O[C@@H]2C[C@H]3[C@@H]4CCC5=CC(=O)C=C[C@]5(C)[C@H]4[C@@H](O)C[C@]3(C)[C@]2(C(=O)CO)O1 [DESONIDE]"
reported_result = "> 30 µM"

[[record]]
molecule = "O=[N+]([O-])O[C@@H]1CO[C@H]2[C@@H]1OC[C@@H]2O [ISOSORBIDE MONONITRATE]"
reported_result = "> 30 µM"

[[record]]
molecule = "CCOC(=O)[N-]c1cn(N2CCOCC2)n[o+]1 [MOLSIDOMINE]"
reported_result = "> 30 µM"

[[record]]
molecule = "C[C@]12CCC(=O)C=C1CC[C@@H]1[C@@H]2[C@@H](O)C[C@@]2(C)[C@H]1CC[C@]2(O)C(=O)CO [HYDROCORTISONE]"
reported_result = "> 30 µM"

[[record]]
molecule = "CC(=O)O[C@H]1C[C@@H]2CC[C@@H]3[C@H](CC[C@@]4(C)[C@H]3C[C@H]([N+]3(C)CCCCC3)[C@@H]4OC(C)=O)[C@@]2(C)C[C@@H]1N1CCCCC1 [VECURONIUM]"
reported_result = "> 30 µM"

[[record]]
molecule = "CC[C@H]1[C@@H](O)[C@@H]2[C@H](CC[C@]3(C)[C@@H]([C@H](C)CCC(=O)O)CC[C@@H]23)[C@@]2(C)CC[C@@H](O)C[C@@H]12 [OBETICHOLIC ACID]"
reported_result = "> 30 µM"

[[record]]
molecule = "CCC1(CC)C(=O)NCC(C)C1=O (stereo not given) [METHYPRYLON]"
reported_result = "> 30 µM"

[[record]]
molecule = "NCC(=O)CCC(=O)O [AMINOLEVULINIC ACID]"
reported_result = "> 30 µM"

[[record]]
molecule = "C/C(O)=C(\\C#N)C(=O)Nc1ccc(C(F)(F)F)cc1 [TERIFLUNOMIDE]"
reported_result = "> 30 µM"

[[record]]
molecule = "Nc1nc(N)nc(-c2cc(Cl)ccc2Cl)n1 [IRSOGLADINE]"
reported_result = "> 30 µM"

[[record]]
molecule = "Cc1nc([N+](=O)[O-])cn1-c1ccc([N+](=O)[O-])cc1 [NITREFAZOLE]"
reported_result = "> 30 µM"

[[record]]
molecule = "CCOC(=O)OC(C)OC1=C(C(=O)Nc2ccccn2)N(C)S(=O)(=O)c2ccccc21 (stereo not given) [AMPIROXICAM]"
reported_result = "> 30 µM"

[[record]]
molecule = "C[C@H]1CNCCc2ccc(Cl)cc21 [LORCASERIN]"
reported_result = "> 30 µM"

[[record]]
molecule = "O=P1(NCCCl)OCCCN1CCCl (stereo not given) [IFOSFAMIDE]"
reported_result = "> 30 µM"

[[record]]
molecule = "CCCCc1ncc(/C=C(\\Cc2cccs2)C(=O)O)n1Cc1ccc(C(=O)O)cc1 [EPROSARTAN]"
reported_result = "0.0019 µM"

[[record]]
molecule = "CCOc1ccccc1OCC1CNCCO1 (stereo not given) [VILOXAZINE]"
reported_result = "> 30 µM"

[[record]]
molecule = "CC(C)(C)c1cc(C(C)(C)C)c(NC(=O)c2c[nH]c3ccccc3c2=O)cc1O [IVACAFTOR]"
reported_result = "26.9 µM"

[[record]]
molecule = "O=C1C(O)=C([C@H]2CC[C@H](c3ccc(Cl)cc3)CC2)C(=O)c2ccccc21 [ATOVAQUONE]"
reported_result = "> 30 µM"


---

- SYSTEM_NAME: Voltage-gated inwardly rectifying potassium channel KCNH2 (Homo sapiens)
- Sequence (Q12809 whole entry): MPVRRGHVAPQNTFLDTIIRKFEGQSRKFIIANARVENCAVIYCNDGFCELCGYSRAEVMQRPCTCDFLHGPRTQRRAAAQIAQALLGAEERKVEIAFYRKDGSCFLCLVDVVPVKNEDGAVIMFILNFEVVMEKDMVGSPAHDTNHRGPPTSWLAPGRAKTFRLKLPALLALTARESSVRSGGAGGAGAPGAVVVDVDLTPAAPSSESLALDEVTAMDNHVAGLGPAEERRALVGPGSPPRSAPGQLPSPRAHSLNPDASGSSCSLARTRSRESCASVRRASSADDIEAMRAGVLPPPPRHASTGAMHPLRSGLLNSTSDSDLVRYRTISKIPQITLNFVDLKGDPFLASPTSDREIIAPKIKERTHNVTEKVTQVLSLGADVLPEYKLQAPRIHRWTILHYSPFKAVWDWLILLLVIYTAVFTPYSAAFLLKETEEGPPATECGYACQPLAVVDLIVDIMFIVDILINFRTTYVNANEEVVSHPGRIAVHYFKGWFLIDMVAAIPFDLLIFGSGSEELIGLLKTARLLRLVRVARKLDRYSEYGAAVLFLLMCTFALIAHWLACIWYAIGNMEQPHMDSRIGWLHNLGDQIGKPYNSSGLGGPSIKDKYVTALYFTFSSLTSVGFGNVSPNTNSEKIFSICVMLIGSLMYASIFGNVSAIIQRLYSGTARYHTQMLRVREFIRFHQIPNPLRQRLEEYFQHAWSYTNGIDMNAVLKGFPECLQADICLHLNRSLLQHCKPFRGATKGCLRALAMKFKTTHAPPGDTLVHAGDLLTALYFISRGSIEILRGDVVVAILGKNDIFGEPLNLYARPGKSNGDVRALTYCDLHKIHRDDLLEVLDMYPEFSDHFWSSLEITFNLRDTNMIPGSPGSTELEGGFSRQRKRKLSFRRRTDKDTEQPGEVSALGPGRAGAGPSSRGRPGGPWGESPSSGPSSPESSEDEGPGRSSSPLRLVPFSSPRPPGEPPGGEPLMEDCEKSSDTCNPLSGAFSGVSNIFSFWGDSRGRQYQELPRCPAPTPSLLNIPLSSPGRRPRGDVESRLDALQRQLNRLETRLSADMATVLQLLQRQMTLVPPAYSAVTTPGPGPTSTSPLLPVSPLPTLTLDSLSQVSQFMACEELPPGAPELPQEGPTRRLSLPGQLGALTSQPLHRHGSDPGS
- Assay type: functional
- PROTOCOL_CONDITIONS: read-out: AC50
Listed here are compounds together with their documented AC50.
EXPERIMENTAL_READOUT: AC50

[[record]]
compound = "CC(C)(C)C(=O)Oc1ccc(S(=O)(=O)Nc2ccccc2C(=O)NCC(=O)O)cc1"
system_name = "Voltage-gated inwardly rectifying potassium channel KCNH2 (Homo sapiens)"
reported_result = "> 30 µM"

[[record]]
compound = "CC(C)(S)[C@@H](N)C(=O)O"
system_name = "Voltage-gated inwardly rectifying potassium channel KCNH2 (Homo sapiens)"
reported_result = "> 30 µM"

[[record]]
compound = "CC(=O)OCC(=O)[C@@]1(O)CC[C@H]2[C@@H]3CCC4=CC(=O)C=C[C@]4(C)[C@@]3(Cl)[C@@H](Cl)C[C@@]21C [DICHLORISONE ACETATE]"
system_name = "Voltage-gated inwardly rectifying potassium channel KCNH2 (Homo sapiens)"
reported_result = "> 30 µM"

[[record]]
compound = "CCCN(CCC)C(=O)C(CCC(=O)O)NC(=O)c1ccccc1 (centres undefined) [PROGLUMIDE]"
system_name = "Voltage-gated inwardly rectifying potassium channel KCNH2 (Homo sapiens)"
reported_result = "> 30 µM"

[[record]]
compound = "CC(C)(C)CC(C)(C)c1ccc(O)c(Cc2ccc(Cl)cc2Cl)c1"
system_name = "Voltage-gated inwardly rectifying potassium channel KCNH2 (Homo sapiens)"
reported_result = "11 µM"

[[record]]
compound = "Nc1nc(Cl)nc2c1ncn2[C@H]1C[C@H](O)[C@@H](CO)O1"
system_name = "Voltage-gated inwardly rectifying potassium channel KCNH2 (Homo sapiens)"
reported_result = "> 30 µM"

[[record]]
compound = "COc1ccc2c3c1O[C@H]1C[C@@H](O)C=C[C@@]31CCN(C)C2"
system_name = "Voltage-gated inwardly rectifying potassium channel KCNH2 (Homo sapiens)"
reported_result = "> 30 µM"

[[record]]
compound = "Nc1nc(N)nc(-c2cc(Cl)ccc2Cl)n1"
system_name = "Voltage-gated inwardly rectifying potassium channel KCNH2 (Homo sapiens)"
reported_result = "> 30 µM"

[[record]]
compound = "O=C(Nc1ccc(Cl)cc1)Nc1ccc(Cl)c(Cl)c1"
system_name = "Voltage-gated inwardly rectifying potassium channel KCNH2 (Homo sapiens)"
reported_result = "> 30 µM"

[[record]]
compound = "Clc1cc(Cl)c(OCC#CI)cc1Cl"
system_name = "Voltage-gated inwardly rectifying potassium channel KCNH2 (Homo sapiens)"
reported_result = "9.85 µM"

[[record]]
compound = "CC(C)(C)NC[C@H](O)COc1ccccc1C1CCCC1"
system_name = "Voltage-gated inwardly rectifying potassium channel KCNH2 (Homo sapiens)"
reported_result = "11 µM"

[[record]]
compound = "NNc1nnc(NN)c2ccccc12 [DIHYDRALAZINE]"
system_name = "Voltage-gated inwardly rectifying potassium channel KCNH2 (Homo sapiens)"
reported_result = "0.44 µM"

[[record]]
compound = "O=c1[nH]c(=O)n(C2CCCO2)cc1F (centres undefined)"
system_name = "Voltage-gated inwardly rectifying potassium channel KCNH2 (Homo sapiens)"
reported_result = "> 30 µM"

[[record]]
compound = "O=C(Oc1ccc2c(c1)CCCN2C(=O)C(Cl)Cl)c1ccco1 [QUINFAMIDE]"
system_name = "Voltage-gated inwardly rectifying potassium channel KCNH2 (Homo sapiens)"
reported_result = "> 30 µM"

[[record]]
compound = "CCCCN1C[C@H](O)[C@@H](O)[C@H](O)[C@H]1CO"
system_name = "Voltage-gated inwardly rectifying potassium channel KCNH2 (Homo sapiens)"
reported_result = "> 30 µM"

[[record]]
compound = "CC(=O)OCC(=O)[C@@]12N=C(C)O[C@@H]1C[C@H]1[C@@H]3CCC4=CC(=O)C=C[C@]4(C)[C@H]3[C@@H](O)C[C@@]12C"
system_name = "Voltage-gated inwardly rectifying potassium channel KCNH2 (Homo sapiens)"
reported_result = "> 30 µM"

[[record]]
compound = "CC(C)(C)NCC(O)COc1cccc2c1SCCC2 (centres undefined)"
system_name = "Voltage-gated inwardly rectifying potassium channel KCNH2 (Homo sapiens)"
reported_result = "> 30 µM"

[[record]]
compound = "CC(=O)OCC1=C(C(=O)O)N2C(=O)[C@@H](NC(=O)[C@H](N)c3ccccc3)[C@H]2SC1"
system_name = "Voltage-gated inwardly rectifying potassium channel KCNH2 (Homo sapiens)"
reported_result = "> 30 µM"

[[record]]
compound = "CCCN1C[C@H](CSC)C[C@@H]2c3cccc4[nH]cc(c34)C[C@H]21 [PERGOLIDE]"
system_name = "Voltage-gated inwardly rectifying potassium channel KCNH2 (Homo sapiens)"
reported_result = "0.22 µM"

[[record]]
compound = "CC[N+](CC)(CC)CCOc1cccc(OCC[N+](CC)(CC)CC)c1OCC[N+](CC)(CC)CC"
system_name = "Voltage-gated inwardly rectifying potassium channel KCNH2 (Homo sapiens)"
reported_result = "8.99 µM"

[[record]]
compound = "CN(C)CC/C=C1\\c2ccccc2CSc2ccccc21 [DOTHIEPIN]"
system_name = "Voltage-gated inwardly rectifying potassium channel KCNH2 (Homo sapiens)"
reported_result = "1.5 µM"

[[record]]
compound = "CN(C)CCc1c[nH]c2ccc(C[C@H]3COC(=O)N3)cc12"
system_name = "Voltage-gated inwardly rectifying potassium channel KCNH2 (Homo sapiens)"
reported_result = "> 30 µM"

[[record]]
compound = "CCOc1ccccc1C(N)=O [ETHENZAMIDE]"
system_name = "Voltage-gated inwardly rectifying potassium channel KCNH2 (Homo sapiens)"
reported_result = "> 30 µM"

[[record]]
compound = "COc1ccc2c3c1O[C@H]1C(=O)CC[C@@]4(O)[C@@H](C2)N(C)CC[C@]314"
system_name = "Voltage-gated inwardly rectifying potassium channel KCNH2 (Homo sapiens)"
reported_result = "> 30 µM"

[[record]]
compound = "COc1cc2c3cc1Oc1cc(ccc1O)C[C@@H]1c4c(cc(OC)c(O)c4Oc4ccc(cc4)C[C@@H]3N(C)CC2)CC[N+]1(C)C"
system_name = "Voltage-gated inwardly rectifying potassium channel KCNH2 (Homo sapiens)"
reported_result = "> 30 µM"

[[record]]
compound = "O=C(O)C[C@H](O)C[C@H](O)/C=C/c1c(C2CC2)nc2ccccc2c1-c1ccc(F)cc1"
system_name = "Voltage-gated inwardly rectifying potassium channel KCNH2 (Homo sapiens)"
reported_result = "> 30 µM"

[[record]]
compound = "OCCN1C[C@H](O)[C@@H](O)[C@H](O)[C@H]1CO"
system_name = "Voltage-gated inwardly rectifying potassium channel KCNH2 (Homo sapiens)"
reported_result = "> 30 µM"

[[record]]
compound = "CC(C)C[C@H]1C(=O)N2CCC[C@H]2[C@]2(O)O[C@](NC(=O)[C@@H]3C=C4c5cccc6[nH]c(Br)c(c56)C[C@H]4N(C)C3)(C(C)C)C(=O)N12"
system_name = "Voltage-gated inwardly rectifying potassium channel KCNH2 (Homo sapiens)"
reported_result = "> 30 µM"

[[record]]
compound = "CC[C@H]1OC(=O)[C@H](C)[C@@H](O[C@H]2C[C@@](C)(OC)[C@@H](O)[C@H](C)O2)[C@H](C)[C@@H](O[C@@H]2O[C@H](C)C[C@H](N(C)C)[C@H]2O)[C@](C)(O)C[C@@H](C)CN(C)[C@H](C)[C@@H](O)[C@]1(C)O"
system_name = "Voltage-gated inwardly rectifying potassium channel KCNH2 (Homo sapiens)"
reported_result = "> 30 µM"

